# test-details: CCTE_Shafer_MEA_dev_per_network_spike_spike_number_mean: CCTE's Neural Network Formation Assay for Mean Number of Spikes in a Network Spike, Shafer Lab (AID 2284053)
Activity calls are given as the source filed them. How the source made its calls: active means hit-call score of the fitted dose curve at least 0.9, where 1 is the maximum; inactive means score below 0.9.
Thanks in advance; please answer with one of these: active, inactive

Status in this test for "COc1cc2c(c(OC)c1OC)-c1ccc(OC)c(=O)cc1[C@@H](NC(C)=O)CC2" ?
active

Same question, "OC(Cn1cncn1)(Cn1cncn1)c1ccc(F)cc1F" this time
inactive

Same question, "FC(F)(F)COC(OCC(F)(F)F)OCC(F)(F)F" this time
inactive

Same question, "Cn1cc[nH]c1=S" this time
inactive

Same question, "CCOc1ccc2[nH]cc(C(=O)NCc3ccccc3)c(=O)c2n1" this time
inactive

Same question, "NCC(F)(F)C(F)(F)C(F)(F)C(F)(F)F" this time
inactive

Same question, "CC[C@H](C)C(=O)O[C@H]1C[C@H](O)C=C2C=C[C@H](C)[C@H](CC[C@@H](O)C[C@@H](O)CC(=O)O)[C@H]21" this time
inactive

Same question, "c1ccc2cc3ccccc3cc2c1" this time
inactive

Same question, "FC(F)(F)C(F)(F)C(F)(F)C(F)(F)C(F)(F)C(F)(F)I" this time
inactive

Same question, "c1ccc2c(c1)-c1cccc3c1c-2cc1ccccc13" this time
inactive
